Below, each entry is listed alongside its reported melting point.

Given item COC(=O)NCc1cc(-c2cnn(-c3c(F)cc(N)cc3F)n2)ccc1C , the value recorded as its melting point is 144 to 148 °C

Briefly, melting point measured for COC(=O)NCc1cc(-c2cn(-c3c(F)cc([N+](=O)[O-])cc3F)nn2)ccc1C : 174 to 178 °C

compound COC(=O)NCc1cc(-c2ccn(-c3c(F)cc(C=O)cc3F)n2)ccc1C , melting point observed: 156 to 160 °C

Recorded melting point (compound COC(=O)NCc1cc(-c2cnn(-c3c(F)cc(Cl)cc3F)n2)ccc1C ): 108 to 112 °C

Item: COC(=O)NCc1cc(-c2ncn(-c3c(F)cc(Cl)cc3F)n2)ccc1C | melting point: 166 to 170 °C
